Data provenance: PubChem BioAssay

So I've got a bunch of compounds here, and I need their nuclei count values.
# ASSAY SUMMARY: endothelial E-selectin expression blockers – imaging, HUVEC, immunofluorescence, MLSMR starter and 10KST1 sets, primary screen (AID 487);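 note: 100% = median nuclei count of all wells on the same plate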
# TEST CONDITIONS: HUVEC TNFalpha-induced E-selectin immunofluorescence imaging, at 2 µM; measured here: cell number, toxicity
The answer is to be given in %; state only the numeric part.

// recorded nuclei count for COC(=O)c1nn(-c2ccc(-c3ccccc3)cc2)cc1O : 111

// recorded nuclei count for CCCCc1cc(=O)oc2cc(C)cc(OC(C)C(=O)O)c12 (configuration not stated) : 134

// recorded nuclei count for COC(=O)c1sccc1NC(=O)c1ccncc1 : 122

// recorded nuclei count for COc1ccc(N2C(=O)C3CCCN3C2c2ccc(F)cc2)cc1Cl (configuration not stated) : 89.1

// recorded nuclei count for Cc1noc(C)c1S(=O)(=O)NCCN1CCN(c2ccccc2)CC1 : 141

// recorded nuclei count for CN(C)CC(=O)N1c2ccccc2CCc2ccc(NC(=O)c3ccc(N)cc3)cc21 : 108

// recorded nuclei count for Cc1nc(NCc2ccccn2)c2ccccc2n1 : 121

// recorded nuclei count for O=c1c2ccccc2nc(-c2cccc(Cl)c2)n1O : 112

// recorded nuclei count for CN(Cc1ccccc1)Cc1nc2c([nH]1)c(=O)[nH]c(=O)n2C : 91.4

// recorded nuclei count for CCOC(=O)c1cnn(-c2ncnc3c2cnn3Cc2ccccc2)c1N : 118

// recorded nuclei count for COC(=O)c1sc(NC(=O)COc2ccccc2OC)nc1C : 122

// recorded nuclei count for Cc1cccc2cc(C(c3nnnn3C(C)(C)C)N3CCN(C(=O)c4ccco4)CC3)c(=O)[nH]c12 (configuration not stated) : 88.4

// recorded nuclei count for COC(=O)Nc1ccc(S(=O)(=O)N(C)CC(F)(F)C(F)F)cc1 : 86.7

// recorded nuclei count for Cc1nc2ccccc2c2oc(C(=O)NCc3ccccn3)cc12 : 102

// recorded nuclei count for COc1ccccc1NC(=O)c1ccc(NC(=O)CSc2nnnn2C)cc1 : 100

// recorded nuclei count for CN1Cc2c(N)cccc2C(c2ccccc2)C1 (configuration not stated) : 131

// recorded nuclei count for C/C(Cl)=C\Cn1c(NCCc2ccccc2)nc2c1c(=O)n(C)c(=O)n2C : 96.4
